Each entry below carries its reported growth.
Tested on: RPMI-8226 leukemia
Test: NCI-60 one-dose screen, 48 h (100 = growth as untreated, 0 = no growth, -100 = all killed)
Conditions: 10 µM unless noted
Compounds without any hit were thinned out: in the full panel of roughly 83,000, 20% have a hit.
Hi! Could you send only the number? It should be in %, unit omitted.

                                   compound       target_system  unit_symbol  recorded_number
0  O=C1NC(=O)C(=Cc2cn(Cc3ccccc3)c3ccccc23)C(=O)N1  RPMI-8226 leukemia            %             75.7
1            CC(=O)C1C(=O)N(C)C(=O)N(C)C1=O  RPMI-8226 leukemia            %             99.7
2  Cc1cc(NC(=O)CCc2ccc(N3C(N)=NC(N)=NC3(C)C)cc2)ccc1S(=O)(=O)F  RPMI-8226 leukemia            %            -24.6
3  COc1ccc2c(c1)NC1=C(C(=O)OC1)C2c1cc(OC)c(OC)c(OC)c1 (stereo unspecified)  RPMI-8226 leukemia            %             12.6
4                  Nc1ccc(N)c2c1Oc1ccccc1O2  RPMI-8226 leukemia            %               81

The record that follows has no growth shown yet.
# growth measured on RPMI-8226 leukemia for item [Cl][Hg][n]1cnc2c(Cl)c(Cl)c(Cl)cc21 = 98.9

Data credit: PubChem BioAssay (NCI)
